The reported measurements were obtained from patent US8871753B2.

Biological target: human JAK1 (a.a. 837-1142) (Homo sapiens)
Construct: human JAK1 (a.a. 837-1142); His tag (N); made in house; host or cells: insect cells (baculovirus)
Sequence (P23458 849-1154): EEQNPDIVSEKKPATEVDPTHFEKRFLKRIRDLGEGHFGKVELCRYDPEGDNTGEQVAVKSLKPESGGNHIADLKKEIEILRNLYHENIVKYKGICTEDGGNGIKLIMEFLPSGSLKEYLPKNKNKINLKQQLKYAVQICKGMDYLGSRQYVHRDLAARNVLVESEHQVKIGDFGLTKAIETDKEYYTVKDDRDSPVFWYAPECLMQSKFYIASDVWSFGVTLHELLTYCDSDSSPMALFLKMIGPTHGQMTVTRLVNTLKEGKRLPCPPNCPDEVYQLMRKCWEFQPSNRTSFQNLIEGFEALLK
Test: In vitro JAK kinase assay (HTRF, phosphorylation of a biotinylated peptide), JAK1
Assay type: biochemical
Conditions: Table B1; read-out: JAK1 IC50
Where a name gives a salt, the structure may show the parent alone.
quantity_name: IC50 (nM)

# annotated cases, reported IC50 shown
# IC50 (compound: N#Cc1ccc(N2CCN(C(=O)Nc3ccc4cc3CCc3cncc(c3)Nc3ncc(Cl)c(n3)N4)CC2)cc1 [Example B303, tris(trifluoroacetate)] ) is 19

Reported IC50 ( O=C(Nc1ccc2cc1CCc1cncc(c1)Nc1ncc(Cl)c(n1)N2)N1CCN(c2ccc(F)cc2)CC1 [Example B297, tris(trifluoroacetate)] ) = 27

Sample O=C(Nc1ccc2cc1CCc1cccc(c1)Nc1ncc(Cl)c(n1)N2)Nc1ccccc1OC(F)F [Example B128, trifluoroacetate] ; IC50 observed: 0.69

Record summary for Cc1oncc1C(=O)N1CC[C@H](NC(=O)Nc2ccc3cc2CCc2cncc(c2)Nc2ncc(Cl)c(n2)N3)C1 [Example B266, bis(trifluoroacetate)] : reported IC50 = 17

1: CN(Cc1ccc2cc1CCc1cncc(c1)Nc1ncc(Cl)c(n1)N2)C(=O)C1CCN(C(=O)c2ccno2)CC1 [Example B336, bis(trifluoroacetate)]
2: O=C(Nc1ccc2cc1CCc1cccc(c1)Nc1ncc(Cl)c(n1)N2)c1ccc2c(c1)OCO2 [Example B71, trifluoroacetate]
Q: Recorded IC50 values differ for 1 and 2 ; which one is higher? Return value: the label identifying the chosen record.
Result: 1
